Data credit: patent US20130101549A1

tested-system: T1, murine HER2 on CHO cells (mouse, UniProt P70424 23-1256)
T1 construct: whole, on cells; also called mHER2/ErbB2; murine Her2-CHO
T1 sequence (P70424 23-1256): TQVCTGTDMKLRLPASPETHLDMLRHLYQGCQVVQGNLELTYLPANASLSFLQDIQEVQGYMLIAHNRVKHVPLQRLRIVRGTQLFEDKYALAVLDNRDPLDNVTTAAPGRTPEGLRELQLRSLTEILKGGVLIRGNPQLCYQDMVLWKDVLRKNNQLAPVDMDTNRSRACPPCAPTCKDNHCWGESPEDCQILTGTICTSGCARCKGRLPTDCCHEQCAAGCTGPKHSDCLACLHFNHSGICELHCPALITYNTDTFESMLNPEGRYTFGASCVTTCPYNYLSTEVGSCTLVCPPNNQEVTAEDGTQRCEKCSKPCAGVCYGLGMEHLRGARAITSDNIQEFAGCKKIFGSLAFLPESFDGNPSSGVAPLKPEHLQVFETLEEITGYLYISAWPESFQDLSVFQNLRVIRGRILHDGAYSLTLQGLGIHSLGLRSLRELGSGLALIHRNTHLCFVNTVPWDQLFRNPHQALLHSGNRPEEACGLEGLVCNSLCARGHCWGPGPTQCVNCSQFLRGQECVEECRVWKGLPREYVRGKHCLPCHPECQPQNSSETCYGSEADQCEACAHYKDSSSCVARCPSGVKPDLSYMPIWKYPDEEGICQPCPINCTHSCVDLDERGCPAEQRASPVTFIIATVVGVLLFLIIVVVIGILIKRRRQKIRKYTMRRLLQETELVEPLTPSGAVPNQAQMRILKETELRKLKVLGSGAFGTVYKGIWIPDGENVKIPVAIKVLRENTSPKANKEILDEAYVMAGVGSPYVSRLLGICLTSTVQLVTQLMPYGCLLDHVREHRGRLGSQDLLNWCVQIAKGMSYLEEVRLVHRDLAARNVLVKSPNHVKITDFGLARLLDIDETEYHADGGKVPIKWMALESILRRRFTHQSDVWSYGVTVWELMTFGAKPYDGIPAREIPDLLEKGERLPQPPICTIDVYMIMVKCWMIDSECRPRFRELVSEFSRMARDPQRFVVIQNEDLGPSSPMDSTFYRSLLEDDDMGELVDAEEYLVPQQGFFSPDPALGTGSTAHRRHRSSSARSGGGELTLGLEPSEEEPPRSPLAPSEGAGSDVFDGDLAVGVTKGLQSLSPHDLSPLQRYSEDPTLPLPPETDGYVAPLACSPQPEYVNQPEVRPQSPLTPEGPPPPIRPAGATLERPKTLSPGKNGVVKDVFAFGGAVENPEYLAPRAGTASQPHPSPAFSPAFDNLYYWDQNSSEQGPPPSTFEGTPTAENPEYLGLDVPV
test-method-notes: FACS on CHO cells expressing murine HER2
assay-endpoint: binding result

{"columns": ["binder", "assay-endpoint", "endpoint-value"],
 "data": [
  ["BIIB67F10 Fab (Fab, V domains shown, Soluble human Fab from a naive phagemid Fab library) VH: EVQLLESGGGLVQPGGSLRLSCAASGFTFSPYMMVWVRQAPGKGLEWVSWISPSGGYTFYADSVKGRFTISRDNSKNTLYLQMNSLRAEDTAVYYCAYGTYPLTYWGQGTLVTVSS VL: QSELTQTPSVSVSPGQTASITCSGDKLGDKYVSWFQLKPGQSPLLVIYQDSKWPSGIPERFSGSNSGNTATLTISGTQATDEADYYCQVWDISHVVFGGGTKLTVL", "binding result", "no binding"],
  ["BIIB65B03 Fab (Fab, V domains shown, Soluble human Fab from a naive phagemid Fab library) VH: EVQLLESGGGLVQPGGSLRLSCAASGFTFSWYRMNWVRQAPGKGLEWVSSIYSSGGPTNYADSVKGRFTISRDNSQNTLYLQMNSLRAEDTAVYYCTREKPDYYDSSGYLDYWGQGTLVTVSS VL: DIQMTQSPGTLSLSPGERSTLSCRASQSVSSSYLAWYQQKPGQAPRLLIYGASSRATGIPDRFSGSGSGTDFTLTISRLEPEDFGVYYCHQYGRPPVFGPGTKVDIK", "binding result", "no binding"],
  ["BIIB69A09 Fab (Fab, V domains shown, Soluble human Fab from a naive phagemid Fab library) VH: EVQLLESGGGLVQPGGSLRLSCAASGFTFSRYNMWWVRQAPGKGLEWVSVIRSSGGYTGYADSVKGRFTISRDNSKNTLYLQMNSLRAEDTAVYYCARWNSGYSYWDYYYGMDVWGQGTTVTVSS VL: DIQMTQSPSSLSASVGDRVTITCRASQSISSYLNWYQQKPGKAPKLLIYAASSLQSGVPSRFSGSGSGTDFTLTISSLQPEDFATYYCQQFNTYPITFGPGTKVDIK", "binding result", "no binding"]
]}
